Would you mind telling me the reported Length of time for which stability is assumed of each entry?
# TEST_SETTINGS: whole blood; RT (room temperature)
Provide the reading as a plain figure in h RT.

get_value(item= CO/N=C(\C(=O)N[C@@H]1C(=O)N2C(C(=O)O)=C(COC(C)=O)CS[C@H]12)c1csc(N)n1 [Cefotaxime, cefotaxime] , readout=Length of time for which stability is assumed) returns 24

Measured Length of time for which stability is assumed, C[C@]1(Cn2ccnn2)[C@H](C(=O)O)N2C(=O)C[C@H]2S1(=O)=O [Tazobactam, tazobactam] : 24

Per the record, CCN1CCN(C(=O)N[C@@H](C(=O)N[C@@H]2C(=O)N3[C@@H]2SC(C)(C)[C@@H]3C(=O)O)c2ccccc2)C(=O)C1=O [Piperacillin, piperacillin] has Length of time for which stability is assumed of 24

* * *

# TEST_SETTINGS: whole blood; RT (room temperature)
I'd appreciate it if you could supply Length of time for which stability is assumed values for the items below.
A number alone suffices; assume h RT.

Summary for this molecule, `CC(=O)NC[C@H]1CN(c2ccc(N3CCOCC3)c(F)c2)C(=O)O1` : Length of time for which stability is assumed is 24

So, `Cc1nnc(SCC2=C(C(=O)O)N3C(=O)[C@@H](NC(=O)Cn4cnnn4)[C@H]3SC2)s1` ? Its Length of time for which stability is assumed was 24

Briefly, Length of time for which stability is assumed measured for CO/N=C(\C(=O)N[C@@H]1C(=O)N2C(C(=O)[O-])=C(C[N+]3(C)CCCC3)CS[C@H]12)c1csc(N)n1 [Cefepime, cefepime] : 24

Per the records, this molecule ( `Cc1onc(-c2c(F)cccc2Cl)c1C(=O)N[C@@H]1C(=O)N2[C@@H]1SC(C)(C)[C@@H]2C(=O)O` ) has Length of time for which stability is assumed equal to 8

Entry `C[C@@H](O)[C@H]1C(=O)N2C(C(=O)O)=C(S[C@@H]3CN[C@H](C(=O)N(C)C)C3)[C@H](C)[C@H]12` , Length of time for which stability is assumed reported as 8

* * *

# TEST_SETTINGS: plasma; −20°C; W = week
PROPERTY_MEASURED: Length of time for which stability is assumed (W−20 °C)
# unit: W−20 °C | format: bare number

The reported Length of time for which stability is assumed of the compound `C[C@]1(Cn2ccnn2)[C@H](C(=O)O)N2C(=O)C[C@H]2S1(=O)=O` was 1

Length of time for which stability is assumed reported for this compound `CC(=O)NC[C@H]1CN(c2ccc(N3CCOCC3)c(F)c2)C(=O)O1` : 2

Briefly, Length of time for which stability is assumed measured for `CCN1CCN(C(=O)N[C@@H](C(=O)N[C@@H]2C(=O)N3[C@@H]2SC(C)(C)[C@@H]3C(=O)O)c2ccccc2)C(=O)C1=O` : 1

Note to self: Length of time for which stability is assumed recorded for `C[C@@H](O)[C@H]1C(=O)N2C(C(=O)O)=C(S[C@@H]3CN[C@H](C(=O)N(C)C)C3)[C@H](C)[C@H]12` was 1

// sample `Cc1onc(-c2c(F)cccc2Cl)c1C(=O)N[C@@H]1C(=O)N2[C@@H]1SC(C)(C)[C@@H]2C(=O)O` , its Length of time for which stability is assumed was 2

Noted for `Cc1nnc(SCC2=C(C(=O)O)N3C(=O)[C@@H](NC(=O)Cn4cnnn4)[C@H]3SC2)s1` : its Length of time for which stability is assumed reads 2

Entry CO/N=C(\C(=O)N[C@@H]1C(=O)N2C(C(=O)[O-])=C(C[N+]3(C)CCCC3)CS[C@H]12)c1csc(N)n1 [Cefepime, cefepime] , Length of time for which stability is assumed reported as 1
